Assay: self-splicing fitness, log relative to wild type (ln ratio); higher = more splicing; Tetrahymena group I intron in knt gene, E. coli kanamycin selection, DiMSum; sequences stand for … in CUCUCU…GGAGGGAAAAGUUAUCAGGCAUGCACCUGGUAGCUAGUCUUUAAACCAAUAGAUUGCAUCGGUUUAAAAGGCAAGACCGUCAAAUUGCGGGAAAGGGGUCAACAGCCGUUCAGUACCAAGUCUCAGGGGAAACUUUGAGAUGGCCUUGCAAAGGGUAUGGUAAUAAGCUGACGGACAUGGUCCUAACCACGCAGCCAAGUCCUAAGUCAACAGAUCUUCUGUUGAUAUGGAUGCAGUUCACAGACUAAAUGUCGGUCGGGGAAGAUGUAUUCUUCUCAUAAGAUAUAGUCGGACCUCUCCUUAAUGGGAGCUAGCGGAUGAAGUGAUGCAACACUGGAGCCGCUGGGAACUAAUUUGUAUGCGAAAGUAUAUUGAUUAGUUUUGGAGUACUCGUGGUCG;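 note: selection with 25 µg/mL kanamycin versus none on LB agar overnight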
Conditions: 37 °C
self-splicing fitness (ln) class ranges: low = under -2, middle = from -2 up to -0.5, high = -0.5 and over

Completed entries (count: 5):
1. CACUAGCAAUAUUACGGCGC; middle
2. CGAGAGCAAUAUUACGUCUC; low
3. UCAUAGCAAUAUUACGUGUC; low
4. AAAGAGCAAUAUUACGCACC; middle
5. CUCAAGCAAUAUUACGACCG; middle

Q: Exam item: assign `UCCCAGCAAUAUUACGGGCG` to the correct category.
Result: high

---

Assay: self-splicing fitness, log relative to wild type (ln ratio); higher = more splicing; Tetrahymena group I intron in knt gene, E. coli kanamycin selection, DiMSum; sequences stand for … in CUCUCU…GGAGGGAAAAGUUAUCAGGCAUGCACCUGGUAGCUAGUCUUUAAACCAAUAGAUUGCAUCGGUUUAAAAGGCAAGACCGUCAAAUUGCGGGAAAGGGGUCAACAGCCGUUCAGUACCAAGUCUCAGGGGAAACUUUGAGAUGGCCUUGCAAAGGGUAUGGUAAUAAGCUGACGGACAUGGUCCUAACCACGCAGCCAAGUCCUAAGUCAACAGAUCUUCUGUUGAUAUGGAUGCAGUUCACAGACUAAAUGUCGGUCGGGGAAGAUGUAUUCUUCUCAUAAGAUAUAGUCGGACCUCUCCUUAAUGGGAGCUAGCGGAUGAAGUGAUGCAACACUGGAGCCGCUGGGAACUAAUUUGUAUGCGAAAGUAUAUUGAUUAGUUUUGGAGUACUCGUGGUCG
Conditions: 30 °C
measure.name: self-splicing fitness (ln)
Write no unit; give the number alone.

Worked examples follow.
1) UUAUAGCAAUAUUACGUAAU; -3.23
2) UCCCAGCAAUAUUACGAAUG; -2.98
3) ACCGAGCAAUAUUACGCCUG; -3.61

Q: Query: self-splicing fitness (ln); subject: `AAUGAGCAAUAUUACGAUGA`
Result: -2.16

Q: And the next one, `CCUUAGCAAUAUUACGGGAC` ?
Result: -3.96

Q: And the next one, `GUGGAGCAAUAUUACGGAAA` ?
Result: -1.87

Q: And the next one, `GUGGAGCAAUAUUACGGUGG` ?
Result: -3.76

Q: And the next one, `CCGAAGCAAUAUUACGCACU` ?
Result: -2.98

Q: And the next one, `UUUAAGCAAUAUUACGUGGC` ?
Result: -3.77

Q: And the next one, `UACAAGCAAUAUUACGGCGC` ?
Result: -1.51

Q: And the next one, `AGACAGCAAUAUUACGUAAC` ?
Result: -3.82

Q: And the next one, `CCGCAGCAAUAUUACGUUUG` ?
Result: -1.62
